- Tested on: M14 melanoma
- method.notes: NCI tumour cell line growth inhibition, 48 h
assay.readout: TGI
State the value, then name its unit.

For orientation, consider the following solved cases.
molecule	TGI
O=C1OCN(c2ccccc2)C12CCN(Cc1ccccc1)CC2	33.1 µM
NC(CSC(c1ccccc1)(c1ccccc1)c1ccc2c(c1)OCO2)C(=O)O (centres undefined)	0.648 µM
CC1OC(OC2C(OC(=O)[C@]34CCC(C)(C)C[C@H]3C3=CC[C@@H]5[C@@]6(C)CC[C@H](OC7OC(C(=O)O)C(O)C(O)C7O)C(C)(C)[C@@H]6CC[C@@]5(C)[C@]3(C)C[C@H]4O)OCC(O)C2O)C(O)C(O)C1OC1OCC(OC2OCC(O)C(O)C2O)C(O)C1O (some centres undefined)	11.5 µM

Please look at the following molecule next.
For CN(C)CCCN1c2ccc([N+](=O)[O-])cc2CCc2cccc([N+](=O)[O-])c21 the molecule record lists TGI as 28 µM
